# tgt: T1, THAP1 chemokine-binding domain/IgG1-Fc fusion constructed as described in Example 18B (THAP1 amino acids … (human, UniProt Q5RCE4 140-213 (Pongo abelii entry)))
# T1 construct: Secreted with an immunoglobulin kappa light chain signal peptide (left out); also called Chemotrap-I; Chemotrap; not shown: human IgG1-Fc polypeptide from the N-terminal hinge region to the native C-terminus (hinge, CH2, CH3)
# T1 sequence: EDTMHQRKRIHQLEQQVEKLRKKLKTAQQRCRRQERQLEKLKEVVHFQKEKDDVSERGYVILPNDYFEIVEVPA
# protocol-notes: SPR (Biacore 3000); Fc fusion amine-coupled to a C1 sensor chip, Rantes/CCL5 as analyte at 25, 50, 100 and 200 nM; KD=kd/ka
# Description: In this Example, surface plasmon resonance (SPR) was used to determine the dissociation constant for the binding of Rantes/CCL5 to a THAP1 chemokine binding domain/IgG1-Fc fusion prepared as described in Example 18B. All SPR measurements were made using a Biacore 3000 system (Biacore, Uppsala Sweden). […] The dissociation constant was calculated to be 49 nM.
pKd: −log10 of the molar value.
endpoint-label: pKd

{"binder": "purified recombinant human Rantes/CCL5 (purchased from Chemicon) (ligand, Bought protein; also called recombinant Rantes/CCL5 human chemokine) SPYSSDTTPCCFAYIARPLPRAHIKEYFYTSGKCSNPAVVFVTRKNRQVCANPEKKWVREYINSLEMS", "endpoint-label": "pKd", "quantitative-result": 7.31}

Data provenance is patent US20060270596A1.
